Values compiled from the supplement of paper PMC10849652.

target: ZDHHC8 isoform 3 (UniProt Q9ULC8); assay: log2 fold change, soluble protein after heating vs DMSO (PISA); higher = thermal stabilisation; K562 cells, 10 uM, 30 min; active = over 0.2 and 3.5 SD of the protein, either way, in both replicates (recomputed)
Sequence (Q9ULC8 whole entry, looked up, canonical isoform): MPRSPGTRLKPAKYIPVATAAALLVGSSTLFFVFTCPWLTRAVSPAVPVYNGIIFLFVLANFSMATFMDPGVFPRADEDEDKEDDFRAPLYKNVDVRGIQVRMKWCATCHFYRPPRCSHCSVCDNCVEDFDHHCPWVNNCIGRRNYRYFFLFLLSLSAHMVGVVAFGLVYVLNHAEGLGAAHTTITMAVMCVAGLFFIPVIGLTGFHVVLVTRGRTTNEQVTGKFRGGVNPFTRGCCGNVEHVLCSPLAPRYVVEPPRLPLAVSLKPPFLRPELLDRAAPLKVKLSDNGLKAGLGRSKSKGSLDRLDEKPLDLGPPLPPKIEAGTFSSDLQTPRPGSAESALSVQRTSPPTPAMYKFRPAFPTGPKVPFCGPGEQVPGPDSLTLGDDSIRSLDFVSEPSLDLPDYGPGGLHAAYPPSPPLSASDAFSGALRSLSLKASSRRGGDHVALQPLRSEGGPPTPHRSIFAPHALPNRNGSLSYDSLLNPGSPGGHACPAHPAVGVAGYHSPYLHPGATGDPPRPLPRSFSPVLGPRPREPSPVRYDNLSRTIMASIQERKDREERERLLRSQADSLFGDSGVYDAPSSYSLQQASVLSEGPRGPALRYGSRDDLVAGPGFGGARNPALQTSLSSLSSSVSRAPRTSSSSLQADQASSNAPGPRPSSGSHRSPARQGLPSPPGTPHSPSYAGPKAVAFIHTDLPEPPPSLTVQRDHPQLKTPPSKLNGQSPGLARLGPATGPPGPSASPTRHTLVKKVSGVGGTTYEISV
The full data set covers some 7,900 targets. This sample favours those with a hit. About 0.6% of all pairs of compound and target were hits.
Decision: log2 fold change compared against -0.04; not below it gives 1 (yes), below it gives 0 (no).

{"Compound": "CCCCN(Cc1ccc(C(=O)NO)cc1)C(=O)Nc1ccccc1", "Assigned class": "0 (no)"}
{"Compound": "Cc1ccc2c(=O)c3ccccc3n(CCCN)c2c1C", "Assigned class": "1 (yes)"}
{"Compound": "O=C(Nc1cccc(Nc2ncc(Br)c(NCCc3cnc[nH]3)n2)c1)N1CCCC1", "Assigned class": "1 (yes)"}
{"Compound": "O=C1NC(=O)/C(=C\\c2ccc3nccnc3c2)S1", "Assigned class": "1 (yes)"}
{"Compound": "CC1=C(C(=O)Nc2cc3cn[nH]c3cc2F)C(c2ccc(C(F)(F)F)cc2)CC(=O)N1 (centres undefined)", "Assigned class": "0 (no)"}
{"Compound": "CNc1nc(-c2ccc3c(N)n[nH]c3c2)cc(N2C[C@@H](C(=O)NC3CCCCC3)CC[C@H]2C)n1", "Assigned class": "1 (yes)"}
{"Compound": "C[C@H](Nc1ncnc2nc[nH]c12)c1cc2cccc(Cl)c2c(=O)n1-c1ccccc1", "Assigned class": "1 (yes)"}
{"Compound": "O=C(Nc1nc2ccccc2n1CCN1CCOCC1)c1cccc([N+](=O)[O-])c1", "Assigned class": "0 (no)"}
{"Compound": "Cc1cn(-c2cc(NC(=O)c3ccc(C)c(Nc4nccc(-c5cccnc5)n4)c3)cc(C(F)(F)F)c2)cn1", "Assigned class": "1 (yes)"}

* * *

target: YIPF4 (UniProt Q9BSR8); experiment: log2 fold change, soluble protein after heating vs DMSO (PISA); higher = thermal stabilisation; K562 cells, 10 uM, 30 min; active = over 0.2 and 3.5 SD of the protein, either way, in both replicates (recomputed)
Sequence (Q9BSR8 whole entry, looked up): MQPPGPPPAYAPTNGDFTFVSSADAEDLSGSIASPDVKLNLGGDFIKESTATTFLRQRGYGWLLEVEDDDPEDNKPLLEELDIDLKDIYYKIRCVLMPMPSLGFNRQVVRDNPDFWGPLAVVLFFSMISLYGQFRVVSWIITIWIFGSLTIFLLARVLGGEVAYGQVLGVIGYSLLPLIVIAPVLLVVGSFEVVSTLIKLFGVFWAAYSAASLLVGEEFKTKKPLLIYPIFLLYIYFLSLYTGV
Of roughly 7,900 targets only a part is listed; those with a hit were picked by preference. About 0.6% of all pairs of compound and target were hits.
Threshold check on log2 fold change: at or above 0.01 gives true, strictly below gives false.

{"Chemical smiles": "C/C(=N\\NC(=O)c1cccc(S(=O)(=O)N2CCOCC2)c1)c1cc(Cl)ccc1O", "Assigned class": "false"}
{"Chemical smiles": "C#Cc1cccc(Nc2ncnc3cc(OCCOC)c(OCCOC)cc23)c1", "Assigned class": "false"}
{"Chemical smiles": "Cc1ccc(NC(=O)c2cccc(C(C)(C)C#N)c2)cc1Nc1ccc2ncn(C)c(=O)c2c1", "Assigned class": "true"}
{"Chemical smiles": "NC1(Cc2ccc(Cl)cc2)CCN(c2ncnc3[nH]ccc23)CC1", "Assigned class": "false"}
{"Chemical smiles": "CNC(=O)c1ccccc1Nc1nc(Nc2ccc(N3CCOCC3)cc2OC)ncc1Cl", "Assigned class": "true"}
{"Chemical smiles": "Cc1ccc(NC(=O)c2ccc(CN3CC[C@H](N(C)C)C3)c(C(F)(F)F)c2)cc1Nc1nccc(-c2cncnc2)n1", "Assigned class": "false"}
{"Chemical smiles": "COc1cc2ncnc(Nc3ccc(F)c(Cl)c3)c2cc1OCCCN1CCOCC1", "Assigned class": "true"}
{"Chemical smiles": "COc1cc2nc(-c3cc(F)ccc3O)nc(N[C@@H]3CNC[C@H]3C(C)(C)O)c2cc1OC", "Assigned class": "false"}
{"Chemical smiles": "CNCc1ccc(-c2[nH]c3cc(F)cc4c3c2CCNC4=O)cc1", "Assigned class": "false"}
{"Chemical smiles": "FC(F)(F)c1ccc(/C=C/c2nc(COc3ccc(CCCCn4ccnn4)cc3)co2)cc1", "Assigned class": "true"}
{"Chemical smiles": "CC(C)(C)Cn1c(N)nc2ccc(-c3[nH]c(C(C)(C)C)nc3-c3ccc(F)cc3)nc21", "Assigned class": "false"}
{"Chemical smiles": "COc1cc(C(=O)O)ccc1NC(=O)[C@@H]1N[C@@H](CC(C)(C)C)[C@](C#N)(c2ccc(Cl)cc2F)[C@H]1c1cccc(Cl)c1F", "Assigned class": "false"}
{"Chemical smiles": "Cc1ccc(C(=O)N(CCCN)[C@@H](c2nc3cc(Cl)ccc3c(=O)n2Cc2ccccc2)C(C)C)cc1", "Assigned class": "false"}
{"Chemical smiles": "CCCS(=O)(=O)Nc1ccc(F)c(C(=O)c2c[nH]c3ncc(-c4ccc(Cl)cc4)cc23)c1F", "Assigned class": "true"}
{"Chemical smiles": "CN1CCN(CCOc2cc(OC3CCOCC3)c3c(Nc4c(Cl)ccc5c4OCO5)ncnc3c2)CC1", "Assigned class": "true"}
{"Chemical smiles": "Oc1cc(-c2nc(-c3ccccc3)[nH]c2-c2ccncc2)ccc1Cl", "Assigned class": "false"}
{"Chemical smiles": "CS(=O)(=O)c1ccc(-c2cnc(N)c(C(=O)Nc3ccccc3)n2)cc1", "Assigned class": "true"}
